test system: Plasmodium falciparum; test: Antimicrobial activity against chloroquine and pyrimethamine-resistant Plasmodium falciparum K1 in erythrocytes; assay type: functional, organism-based
Entries annotated with measured IC50

>  <TEST SMILES>
COC(=O)[C@@H](NC(=O)c1cc(COc2ccc3sc(C)nc3c2)on1)c1ccc(O)cc1

>  <IC50>
2.5 µM

$$$$
>  <TEST SMILES>
COC(=O)[C@@H](NC(=O)c1cc(COc2ccc3sc(C)nc3c2)on1)c1ccccc1

>  <IC50>
3.97 µM

$$$$
>  <TEST SMILES>
COC(=O)[C@@H](NC(=O)c1cc(COc2ccccc2)on1)c1ccccc1

>  <IC50>
> 5 µM

$$$$
>  <TEST SMILES>
COC(=O)[C@H](CC(C)C)NC(=O)c1cc(COc2ccc3sc(C)nc3c2)on1

>  <IC50>
4.57 µM

$$$$
>  <TEST SMILES>
Cc1nc2cc(OCc3cc(C(=O)N[C@H](CO)c4ccccc4)no3)ccc2s1

>  <IC50>
2.56 µM

$$$$
>  <TEST SMILES>
Cc1nc2cc(OCc3cc(C(=O)N[C@H](C(=O)O)c4ccccc4)no3)ccc2s1

>  <IC50>
> 5 µM

$$$$
>  <TEST SMILES>
COC(=O)[C@@H](NC(=O)c1cc(COc2nc3ccccc3s2)on1)c1ccccc1

>  <IC50>
> 5 µM

$$$$
>  <TEST SMILES>
COC(=O)[C@@H](NC(=O)c1cc(COc2cccc3sc(C)nc23)on1)c1ccccc1

>  <IC50>
> 5 µM

$$$$
>  <TEST SMILES>
Cc1nc2cc(OCc3cc(C(=O)NNC(=O)c4ccncc4)no3)ccc2s1

>  <IC50>
> 5 µM

$$$$
>  <TEST SMILES>
COC(=O)[C@@H](NC(=O)c1cc(C)on1)c1ccccc1

>  <IC50>
> 5 µM

$$$$

###

Below, each entry is listed with its recorded IC50.
test system: Trypanosoma brucei rhodesiense; assay: Antimicrobial activity against Trypanosoma brucei rhodesiense STIB 900 trypomastigote forms; format: functional, organism-based

>  <TEST SMILES>
Cc1nc2cc(OCc3cc(C(=O)N[C@H](C(=O)O)c4ccccc4)no3)ccc2s1

>  <VALUE RELATION SIGN>
=

>  <IC50 / µM>
89.5

$$$$
>  <TEST SMILES>
Cc1nc2cc(OCc3cc(C(=O)NNC(=O)c4ccncc4)no3)ccc2s1

>  <VALUE RELATION SIGN>
=

>  <IC50 / µM>
38

$$$$
>  <TEST SMILES>
COC(=O)[C@H](CC(C)C)NC(=O)c1cc(COc2ccc3sc(C)nc3c2)on1

>  <VALUE RELATION SIGN>
=

>  <IC50 / µM>
18.7

$$$$
>  <TEST SMILES>
Cc1nc2cc(OCc3cc(C(=O)NO)no3)ccc2s1

>  <VALUE RELATION SIGN>
=

>  <IC50 / µM>
1.85

$$$$
>  <TEST SMILES>
COC(=O)[C@@H](NC(=O)c1cc(COc2ccccc2)on1)c1ccccc1

>  <VALUE RELATION SIGN>
>

>  <IC50 / µM>
90

$$$$
>  <TEST SMILES>
COC(=O)[C@@H](NC(=O)c1cc(COc2ccc3sc(C)nc3c2)on1)c1ccc(O)cc1

>  <VALUE RELATION SIGN>
=

>  <IC50 / µM>
88.9

$$$$

###

Recorded IC50 for the following compounds
test system: Trypanosoma brucei rhodesiense; test: Antimicrobial activity against Trypanosoma brucei rhodesiense STIB 900 trypomastigote forms; type: functional, organism-based

>  <TEST SMILES>
COC(=O)[C@@H](NC(=O)c1cc(COc2nc3ccccc3s2)on1)c1ccccc1

>  <VALUE RELATION SIGN>
=

>  <IC50 [µM]>
88.6

$$$$
>  <TEST SMILES>
Cc1nc2cc(OCc3cc(C(=O)NCc4ccccc4)no3)ccc2s1

>  <VALUE RELATION SIGN>
=

>  <IC50 [µM]>
86.9

$$$$
>  <TEST SMILES>
COC(=O)[C@@H](NC(=O)c1cc(CSc2nc3ccccc3s2)on1)c1ccccc1

>  <VALUE RELATION SIGN>
=

>  <IC50 [µM]>
88.9

$$$$
>  <TEST SMILES>
Cc1nc2cc(OCc3cc(C(=O)N[C@H](C(=O)NO)c4ccccc4)no3)ccc2s1

>  <VALUE RELATION SIGN>
=

>  <IC50 [µM]>
0.415

$$$$
>  <TEST SMILES>
COC(=O)[C@@H](NC(=O)c1cc(COc2cccc3sc(C)nc23)on1)c1ccccc1

>  <VALUE RELATION SIGN>
>

>  <IC50 [µM]>
90

$$$$
>  <TEST SMILES>
COC(=O)[C@@H](NC(=O)c1cc(C)on1)c1ccccc1

>  <VALUE RELATION SIGN>
>

>  <IC50 [µM]>
90

$$$$
>  <TEST SMILES>
COC(=O)[C@H](NC(=O)c1cc(COc2ccc3sc(C)nc3c2)on1)c1ccccc1

>  <VALUE RELATION SIGN>
=

>  <IC50 [µM]>
89.5

$$$$
>  <TEST SMILES>
COC(=O)[C@@H](NC(=O)c1cc(COc2ccc3sc(C)nc3c2)on1)c1ccccc1

>  <VALUE RELATION SIGN>
=

>  <IC50 [µM]>
74.2

$$$$
>  <TEST SMILES>
COC(=O)[C@@H](NC(=O)c1nc(COc2ccc3sc(C)nc3c2)cs1)c1ccccc1

>  <VALUE RELATION SIGN>
=

>  <IC50 [µM]>
37.5

$$$$
>  <TEST SMILES>
Cc1nc2cc(OCc3cc(C(=O)N[C@H](CO)c4ccccc4)no3)ccc2s1

>  <VALUE RELATION SIGN>
=

>  <IC50 [µM]>
31.2

$$$$

###

system: Trypanosoma cruzi; experiment: Antimicrobial activity against Trypanosoma cruzi Tulahuen C2C4 amastigote forms infected in rat L6 cells; type: functional, organism-based
pIC50: −log10 of the molar value.

>  <MOLECULE>
COC(=O)[C@H](NC(=O)c1cc(COc2ccc3sc(C)nc3c2)on1)c1ccccc1

>  <SYSTEM>
Trypanosoma cruzi

>  <VALUE RELATION SIGN>
=

>  <pIC50>
4.43

$$$$
>  <MOLECULE>
COC(=O)[C@@H](NC(=O)c1cc(COc2nc3ccccc3s2)on1)c1ccccc1

>  <SYSTEM>
Trypanosoma cruzi

>  <VALUE RELATION SIGN>
=

>  <pIC50>
4.57

$$$$
>  <MOLECULE>
COC(=O)[C@@H](NC(=O)c1cc(C)on1)c1ccccc1

>  <SYSTEM>
Trypanosoma cruzi

>  <VALUE RELATION SIGN>
<

>  <pIC50>
4.05

$$$$
>  <MOLECULE>
Cc1nc2cc(OCc3cc(C(=O)N[C@H](C(=O)O)c4ccccc4)no3)ccc2s1

>  <SYSTEM>
Trypanosoma cruzi

>  <VALUE RELATION SIGN>
<

>  <pIC50>
4.05

$$$$
>  <MOLECULE>
COC(=O)[C@H](CC(C)C)NC(=O)c1cc(COc2ccc3sc(C)nc3c2)on1

>  <SYSTEM>
Trypanosoma cruzi

>  <VALUE RELATION SIGN>
=

>  <pIC50>
4.91

$$$$
>  <MOLECULE>
Cc1nc2cc(OCc3cc(C(=O)NCc4ccccc4)no3)ccc2s1

>  <SYSTEM>
Trypanosoma cruzi

>  <VALUE RELATION SIGN>
<

>  <pIC50>
4.05

$$$$
>  <MOLECULE>
COC(=O)[C@@H](NC(=O)c1cc(CSc2nc3ccccc3s2)on1)c1ccccc1

>  <SYSTEM>
Trypanosoma cruzi

>  <VALUE RELATION SIGN>
=

>  <pIC50>
4.77

$$$$
>  <MOLECULE>
COC(=O)[C@@H](NC(=O)c1cc(COc2ccccc2)on1)c1ccccc1

>  <SYSTEM>
Trypanosoma cruzi

>  <VALUE RELATION SIGN>
=

>  <pIC50>
4.34

$$$$
>  <MOLECULE>
COC(=O)[C@@H](NC(=O)c1cc(COc2cccc3sc(C)nc23)on1)c1ccccc1

>  <SYSTEM>
Trypanosoma cruzi

>  <VALUE RELATION SIGN>
=

>  <pIC50>
4.73

$$$$
>  <MOLECULE>
Cc1nc2cc(OCc3cc(C(=O)NO)no3)ccc2s1

>  <SYSTEM>
Trypanosoma cruzi

>  <VALUE RELATION SIGN>
=

>  <pIC50>
4.80

$$$$
>  <MOLECULE>
COC(=O)[C@@H](NC(=O)c1cc(COc2ccc3sc(C)nc3c2)on1)c1ccc(O)cc1

>  <SYSTEM>
Trypanosoma cruzi

>  <VALUE RELATION SIGN>
=

>  <pIC50>
4.58

$$$$
>  <MOLECULE>
O=C(Cn1ccnc1[N+](=O)[O-])NCc1ccccc1 [BENZNIDAZOLE]

>  <SYSTEM>
Trypanosoma cruzi

>  <VALUE RELATION SIGN>
=

>  <pIC50>
6.28

$$$$
>  <MOLECULE>
COC(=O)[C@@H](NC(=O)c1nc(COc2ccc3sc(C)nc3c2)cs1)c1ccccc1

>  <SYSTEM>
Trypanosoma cruzi

>  <VALUE RELATION SIGN>
=

>  <pIC50>
4.84

$$$$
>  <MOLECULE>
Cc1nc2cc(OCc3cc(C(=O)N[C@H](C(=O)NO)c4ccccc4)no3)ccc2s1

>  <SYSTEM>
Trypanosoma cruzi

>  <VALUE RELATION SIGN>
=

>  <pIC50>
5.21

$$$$
>  <MOLECULE>
Cc1nc2cc(OCc3cc(C(=O)N[C@H](CO)c4ccccc4)no3)ccc2s1

>  <SYSTEM>
Trypanosoma cruzi

>  <VALUE RELATION SIGN>
<

>  <pIC50>
4.05

$$$$
>  <MOLECULE>
COC(=O)[C@@H](NC(=O)c1cc(COc2ccc3sc(C)nc3c2)on1)c1ccccc1

>  <SYSTEM>
Trypanosoma cruzi

>  <VALUE RELATION SIGN>
<

>  <pIC50>
4.05

$$$$
>  <MOLECULE>
Cc1nc2cc(OCc3cc(C(=O)NNC(=O)c4ccncc4)no3)ccc2s1

>  <SYSTEM>
Trypanosoma cruzi

>  <VALUE RELATION SIGN>
<

>  <pIC50>
4.05

$$$$
